Entry source: patent US10590086B2

target: TDO (Homo sapiens, UniProt P48775); experiment: hTDO biochemical coupled assay; conditions: 330 μM L-tryptophan, 17 minutes, room temperature; read-out: hTDO biochemical assay pIC50 (converted)
Sequence (P48775 whole entry): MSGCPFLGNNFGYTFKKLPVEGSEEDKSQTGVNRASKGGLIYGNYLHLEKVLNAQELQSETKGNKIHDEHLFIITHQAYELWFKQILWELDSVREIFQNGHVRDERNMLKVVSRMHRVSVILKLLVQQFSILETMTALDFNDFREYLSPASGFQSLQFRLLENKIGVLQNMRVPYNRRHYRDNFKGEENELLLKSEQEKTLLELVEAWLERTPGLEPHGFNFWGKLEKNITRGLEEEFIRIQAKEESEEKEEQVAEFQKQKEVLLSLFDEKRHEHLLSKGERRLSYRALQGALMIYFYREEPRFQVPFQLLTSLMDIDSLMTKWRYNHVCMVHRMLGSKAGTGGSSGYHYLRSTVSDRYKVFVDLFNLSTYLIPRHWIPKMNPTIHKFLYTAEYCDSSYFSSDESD
IC50 for assorted compounds

# example entries with known answers
compound=Cc1nc2c(n1C)CN(c1cc(Cl)cc3[nH]ncc13)CC2 system_under_test="TDO (Homo sapiens, UniProt P48775)" reported_result="3.24 to 31.6 µM"
compound="OC(CC1CCOCC1)c1cc(Cl)cc2[nH]ncc12 (stereo not drawn)" system_under_test="TDO (Homo sapiens, UniProt P48775)" reported_result="< 3.16 µM"
compound=CC(=O)N1CC2(CCN(c3cc(Cl)cc4[nH]ncc34)CC2)C1 system_under_test="TDO (Homo sapiens, UniProt P48775)" reported_result="< 3.16 µM"
compound=CC(C)S(=O)(=O)N1CCN(c2cccc3[nH]ncc23)CC1 system_under_test="TDO (Homo sapiens, UniProt P48775)" reported_result="3.24 to 31.6 µM"
compound=CNC(=O)CC1CCN(c2cc(Cl)cc3[nH]ncc23)CC1 system_under_test="TDO (Homo sapiens, UniProt P48775)" reported_result="< 3.16 µM"

Entry NS(=O)(=O)N1CCC2(CCN(c3cc(Cl)cc4[nH]ncc34)CC2)CC1 has what IC50?
< 3.16 µM

Next entry: CC(=O)Nc1ccc(-c2cc(Cl)cc3[nH]ncc23)cc1
< 3.16 µM

Next entry: Cc1nc2c(n1C)CCN(c1cc(Cl)cc3[nH]ncc13)C2
< 3.16 µM

Next entry: Clc1cc(-c2cnn(-c3ccccc3)c2)c2cn[nH]c2c1
> 100 µM
